Data origin: the supplement of paper PMC12667976

B1: library; numbered along this chain (parent)
chain: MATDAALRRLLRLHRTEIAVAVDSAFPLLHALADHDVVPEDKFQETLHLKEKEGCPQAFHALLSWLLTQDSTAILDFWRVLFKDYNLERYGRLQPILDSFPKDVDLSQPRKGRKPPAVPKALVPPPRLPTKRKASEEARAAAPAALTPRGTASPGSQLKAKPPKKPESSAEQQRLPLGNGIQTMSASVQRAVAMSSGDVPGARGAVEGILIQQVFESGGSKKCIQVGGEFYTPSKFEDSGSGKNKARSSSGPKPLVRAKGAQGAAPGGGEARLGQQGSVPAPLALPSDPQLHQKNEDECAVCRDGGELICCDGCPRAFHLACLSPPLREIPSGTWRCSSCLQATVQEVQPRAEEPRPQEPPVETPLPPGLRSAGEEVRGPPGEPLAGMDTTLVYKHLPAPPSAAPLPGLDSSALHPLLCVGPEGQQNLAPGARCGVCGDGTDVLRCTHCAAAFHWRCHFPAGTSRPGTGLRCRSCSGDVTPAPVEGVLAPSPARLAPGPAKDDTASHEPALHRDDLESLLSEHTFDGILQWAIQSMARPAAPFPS

variants of: B1; assay: AIRE transcriptional activation functional score (insulin promoter-GFP; nonsense median 0, synonymous median 1) (normalised score); higher = higher AIRE activity (more reporter activation); conditions: with insulin promoter-GFP reporter in HEK293
Record Met whenever AIRE transcriptional activation functional score is at 0.6 or higher; record Not met when lower.

MUTANT ID	ASSIGNED CATEGORY
M536H	Met
A6D	Met
L417H	Met
G178D	Not met
K164L	Met
P101L	Not met
